test system: Zea mays (ZEAMX); type: in vivo; conditions: 20 g/ha, ZEAMX, effect in comparison to untreated controls
Measure: Post-emergence action against ZEAMX in % (crop plant compatibility) (%)

Reference set, count: 3
Answer with reported Post-emergence action against ZEAMX in % (crop plant compatibility) of CCOC(=O)[C@@H](C)Oc1nn(-c2ncccc2F)c(-c2ccc(F)nc2)c1Br [Example I-33]
10

Answer with reported Post-emergence action against ZEAMX in % (crop plant compatibility) of CCOC(=O)C(C)Oc1nn(-c2ccccn2)c(-c2ccc(F)nc2)c1Br (centres unmarked) [Example I-102]
0

Answer with reported Post-emergence action against ZEAMX in % (crop plant compatibility) of Cc1ncccc1-n1nc(OCC(=O)O)c(Br)c1-c1cncc(F)c1 [II-38]
0

(I) CCOC(=O)[C@@H](C)Oc1nn(-c2ncccc2F)c(-c2ccnc(F)c2)c1Br [Example I-133]
(II) CCOC(=O)COc1nn(-c2ncccc2F)c(-c2ccc(F)nc2)c1Br [Example I-51]
(III) CC(C)N(C)S(=O)(=O)NC(=O)COc1nn(-c2ncccc2F)c(-c2ccc(F)nc2)c1Br [Example I-53]
Please rank these molecules by Post-emergence action against ZEAMX in % (crop plant compatibility) in descending order. Answer by listing the labels in the requested order.
II, III, I
(II: 20%, III: 10%, I: 0%)

Data origin, for the record: patent US20240041042A1
